# TARGET_SYSTEM: UniProtKB P31424
# ASSAY_SUMMARY: IC50 column under 'Biological Activity' (assay not identified in the shown text; not the binding Ki)
MEASURED_ATTRIBUTE: log10 of IC50 (log10 of the value in nM)
// do not treat as linear: log10 of IC50, unit nM

Could you please provide reported log10 of IC50 for COc1ccc(C(=O)N2CCN(C(=O)c3ccco3)CC2)cc1C#Cc1ccccn1 [Compound 258] ? Thanks!
1.98

Could you please provide reported log10 of IC50 for COc1ccc(C(=O)N2CCN(Cc3ccc(Br)cc3F)CC2)cc1C#Cc1ccccn1 [Compound 285] ? Thanks!
2.51

Could you please provide reported log10 of IC50 for COc1ccnc(N2CCN(C(=O)c3ccc(OC)c(C#Cc4ccccn4)c3)CC2)n1 [Compound 200] ? Thanks!
1.38

Could you please provide reported log10 of IC50 for COc1cnc(N2CCN(C(=O)c3ccc(OC)c(C#Cc4ccccn4)c3)CC2)nc1 [Compound 299] ? Thanks!
2.08

Could you please provide reported log10 of IC50 for COc1ccc(C(=O)N2CCN(c3ncc(F)c(N)n3)CC2)cc1C#Cc1ccccn1 [Compound 300] ? Thanks!
2.30

Could you please provide reported log10 of IC50 for COc1ccc(C(=O)N2CCN(c3noc4ccccc34)CC2)cc1C#Cc1ccccn1 [Compound 251] ? Thanks!
1.40

Could you please provide reported log10 of IC50 for COc1ccc(C(=O)N2CCN(c3ncc(F)cn3)CC2)cc1C#Cc1ccccn1 [Compound 298] ? Thanks!
2.01

Could you please provide reported log10 of IC50 for COc1ccc(C(=O)N2CCN(c3ncccn3)CC2)cc1C#Cc1cccc(C#N)c1 [Compound 361] ? Thanks!
1.75

Could you please provide reported log10 of IC50 for COc1ccc(C(=O)N2CCN(c3nccnc3C#N)CC2)cc1C#Cc1ccccn1 [Compound 193] ? Thanks!
1.66

Could you please provide reported log10 of IC50 for COc1ccc(C(=O)N2CCN(c3nsc4ccccc34)CC2)cc1C#Cc1ccccn1 [Compound 201] ? Thanks!
1.38

Could you please provide reported log10 of IC50 for Cc1ccc(C(=O)N2CCN(c3ncccn3)CC2)cc1C#Cc1ccccn1 [Compound 309] ? Thanks!
2.29

Could you please provide reported log10 of IC50 for COc1ccc(C(=O)N2CCN(S(=O)(=O)c3ccc(Cl)cc3)CC2)cc1C#Cc1ccccn1 [Compound 243] ? Thanks!
2.19

Could you please provide reported log10 of IC50 for COc1ccc(C(=O)N2CCN(Cc3ccc4c(c3)OCO4)CC2)cc1C#Cc1ccccn1 [Compound 259] ? Thanks!
2.20

Could you please provide reported log10 of IC50 for COc1ccc(C(=O)N2CCN(c3ncc(Br)c(OC)n3)CC2)cc1C#Cc1ccccn1 [Compound 197] ? Thanks!
1.75

Could you please provide reported log10 of IC50 for COc1ccc(C(=O)N2CCN(c3ccc(Cl)cc3)CC2)cc1C#Cc1ccccn1 [Compound 217] ? Thanks!
2.53

Could you please provide reported log10 of IC50 for COc1ccc(C(=O)N2CCN(c3nc(C)cc(C)n3)CC2)cc1C#Cc1ccccn1 [Compound 192] ? Thanks!
2.04

Could you please provide reported log10 of IC50 for COc1ccc(N2CCN(C(=O)c3ccc(OC)c(C#Cc4ccccn4)c3)CC2)nn1 [Compound 301] ? Thanks!
2.31

Could you please provide reported log10 of IC50 for CCOc1ccc(C(=O)N2CCN(c3nccc(OC)n3)CC2)cc1C#Cc1ccccn1 [Compound 320] ? Thanks!
1.49

Could you please provide reported log10 of IC50 for O=C(c1ccc(OC(F)(F)F)c(C#Cc2ccccn2)c1)N1CCN(c2noc3ccccc23)CC1 [Compound 338] ? Thanks!
1.20

Could you please provide reported log10 of IC50 for CCS(=O)(=O)N1CCN(C(=O)c2ccc(OC)c(C#Cc3ccccn3)c2)CC1 [Compound 245] ? Thanks!
2.54

Could you please provide reported log10 of IC50 for O=C(c1ccc(OCC2CC2)c(C#Cc2ccccn2)c1)N1CCN(c2noc3ccccc23)CC1 [Compound 324] ? Thanks!
1.89

Could you please provide reported log10 of IC50 for COc1ccc(C(=O)N2CCN(c3ncccn3)CC2)cc1C#Cc1ccc(F)cc1 [Compound 362] ? Thanks!
3.16

Could you please provide reported log10 of IC50 for COc1ccc(C(=O)N2CCN(Cc3cccc(Cl)c3)CC2)cc1C#Cc1ccccn1 [Compound 274] ? Thanks!
2.50

Could you please provide reported log10 of IC50 for COc1ccc(C(=O)N2CCN(c3cccc(Cl)n3)CC2)cc1C#Cc1ccccn1 [Compound 255] ? Thanks!
2.11

Could you please provide reported log10 of IC50 for COc1ccc(C(=O)N2CCN(c3cccc(O)c3)CC2)cc1C#Cc1ccccn1 [Compound 195] ? Thanks!
2.85

Could you please provide reported log10 of IC50 for COc1ccc(C(=O)N2CCN(c3ccccc3)C(=O)C2)cc1C#Cc1ccccn1 [Compound 329] ? Thanks!
2.07

---

# TARGET_SYSTEM: mGluR5 (Rattus norvegicus, UniProt P31424)
# ASSAY_SUMMARY: IC50 column under 'Biological Activity' (assay not identified in the shown text; not the binding Ki)
I'd be grateful if you could share measured IC50 for these entries.

Under mGluR5 (Rattus norvegicus, UniProt P31424), report IC50 for COc1ccc(C(=O)N2C[C@@H]3C[C@@H]2CN3c2ccc(C)cc2)cc1C#Cc1ccccn1
> 1000 nM

Under mGluR5 (Rattus norvegicus, UniProt P31424), report IC50 for COc1ccc(C(=O)N2CCN(C(=O)c3ccc(OC)c(C#Cc4ccccn4)c3)CC2)cc1
> 1000 nM

Under mGluR5 (Rattus norvegicus, UniProt P31424), report IC50 for COc1ccc(C(=O)N2CCCN(c3ccccn3)CC2)cc1C#Cc1ccccn1
> 1000 nM

---

# TARGET_SYSTEM: rat mGluR5 receptor (Rattus norvegicus)
# Construct: expressed in transfected cells; host or cells: HEK-293
# Sequence (P31424 21-1203): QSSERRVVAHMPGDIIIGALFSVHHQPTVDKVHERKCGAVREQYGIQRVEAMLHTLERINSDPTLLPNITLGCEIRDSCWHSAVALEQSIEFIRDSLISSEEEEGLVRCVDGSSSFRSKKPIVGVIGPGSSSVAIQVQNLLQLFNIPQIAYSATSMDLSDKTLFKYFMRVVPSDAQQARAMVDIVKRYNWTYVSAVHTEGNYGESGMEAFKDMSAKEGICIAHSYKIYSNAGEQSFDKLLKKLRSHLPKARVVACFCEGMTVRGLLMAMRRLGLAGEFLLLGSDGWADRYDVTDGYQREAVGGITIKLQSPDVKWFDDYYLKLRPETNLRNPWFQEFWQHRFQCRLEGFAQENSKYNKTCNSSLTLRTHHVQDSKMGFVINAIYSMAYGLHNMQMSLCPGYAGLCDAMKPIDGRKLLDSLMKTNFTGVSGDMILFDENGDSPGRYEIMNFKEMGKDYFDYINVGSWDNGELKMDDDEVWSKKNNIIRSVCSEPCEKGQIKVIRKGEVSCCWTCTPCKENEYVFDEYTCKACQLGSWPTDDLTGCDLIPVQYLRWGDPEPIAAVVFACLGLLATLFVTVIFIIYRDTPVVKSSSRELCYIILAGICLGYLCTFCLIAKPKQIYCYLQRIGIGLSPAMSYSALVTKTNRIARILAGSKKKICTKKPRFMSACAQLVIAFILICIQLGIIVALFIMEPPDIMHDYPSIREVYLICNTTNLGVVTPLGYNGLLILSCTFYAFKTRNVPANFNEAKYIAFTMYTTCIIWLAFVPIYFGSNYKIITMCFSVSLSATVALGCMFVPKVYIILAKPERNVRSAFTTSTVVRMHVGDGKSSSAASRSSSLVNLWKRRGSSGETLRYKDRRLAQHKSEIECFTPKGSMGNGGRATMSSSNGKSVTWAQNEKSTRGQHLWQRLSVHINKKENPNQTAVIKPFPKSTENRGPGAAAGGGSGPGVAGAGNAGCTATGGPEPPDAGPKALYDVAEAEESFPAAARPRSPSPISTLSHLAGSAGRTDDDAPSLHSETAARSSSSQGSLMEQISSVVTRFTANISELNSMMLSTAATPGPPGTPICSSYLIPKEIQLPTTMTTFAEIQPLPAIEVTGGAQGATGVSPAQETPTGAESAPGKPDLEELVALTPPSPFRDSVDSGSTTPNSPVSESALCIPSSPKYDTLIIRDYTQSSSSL
# ASSAY_SUMMARY: [3H]-MPEP displacement binding assay, HEK-293 cell membranes expressing rat mGluR5
# TEST_PARAMETERS: [3H]-MPEP displacement, rat mGluR5; read-out: Median Ki
Hi! Could you tag entries with Ki below 80 nM as TRUE, and those at or above as FALSE? Much appreciated.

Dear reviewer, please state whether COc1ccc(C(=O)N2CCN(S(=O)(=O)c3ccc4c(c3)OCCO4)CC2)cc1C#Cc1ccccn1 has Ki strictly beneath 80 nM.
TRUE

Dear reviewer, please state whether COc1ccc(C(=O)N2CCN(Cc3ccc(Cl)cc3)CC2)cc1C#Cc1ccccn1 has Ki strictly beneath 80 nM.
TRUE

Dear reviewer, please state whether Cc1ccc(C(=O)N2CCN(c3ncccc3Cl)CC2)cc1C#Cc1ccccn1 has Ki strictly beneath 80 nM.
FALSE

Dear reviewer, please state whether COc1ccc(C(=O)N2CCN(c3ccccc3)C(=O)C2)cc1C#Cc1ccccn1 has Ki strictly beneath 80 nM.
FALSE

Dear reviewer, please state whether COc1ccc(C(=O)N2CCN(c3ccc(Cl)cc3)CC2)cc1C#Cc1ccccn1 has Ki strictly beneath 80 nM.
TRUE

Dear reviewer, please state whether COc1ccc(C(=O)N2CCN(c3ncccn3)CC2)cc1C#Cc1ccc(F)cc1 has Ki strictly beneath 80 nM.
TRUE

Dear reviewer, please state whether COc1ccc(C(=O)N2CCN(c3ncc(C#N)c(N)n3)CC2)cc1C#Cc1ccccn1 has Ki strictly beneath 80 nM.
TRUE

Dear reviewer, please state whether COc1ccc(C(=O)N2CCN(c3nccnc3Cl)CC2)cc1C#Cc1ccccn1 has Ki strictly beneath 80 nM.
TRUE

Dear reviewer, please state whether COc1ccc(C(=O)N2CCN(c3nnc(C(F)(F)F)s3)CC2)cc1C#Cc1ccccn1 has Ki strictly beneath 80 nM.
TRUE

Dear reviewer, please state whether COc1ccc(C(=O)N2CCN(c3nnc([N+](=O)[O-])s3)CC2)cc1C#Cc1ccccn1 has Ki strictly beneath 80 nM.
FALSE

Dear reviewer, please state whether COc1ccc(C(=O)N2CCN(c3ncccn3)CC2)cc1C#Cc1ccccc1F has Ki strictly beneath 80 nM.
FALSE

Dear reviewer, please state whether COc1ccc(C(=O)N2CCN(c3ncccn3)CC2)cc1C#Cc1cccc(OC(F)F)c1 has Ki strictly beneath 80 nM.
FALSE

Dear reviewer, please state whether COc1ccc(C(=O)N2CCN(C(=O)C3CCCO3)CC2)cc1C#Cc1ccccn1 (stereo not drawn) has Ki strictly beneath 80 nM.
FALSE

Dear reviewer, please state whether COc1ccc(C(=O)N2C[C@H]3C[C@H]2CN3c2ccc(Cl)cc2)cc1C#Cc1ccccn1 has Ki strictly beneath 80 nM.
TRUE

Dear reviewer, please state whether COc1ccc(C(=O)N2CCN(c3nnc(Cl)c4ccccc34)CC2)cc1C#Cc1ccccn1 has Ki strictly beneath 80 nM.
TRUE

Dear reviewer, please state whether COc1ccc(C(=O)N2CCN(Cc3ccc(F)cc3)CC2)cc1C#Cc1ccccn1 has Ki strictly beneath 80 nM.
TRUE

Dear reviewer, please state whether COc1ccc(C(=O)N2CCN(c3ncccn3)CC2)cc1C#Cc1ccc(Cl)cc1 has Ki strictly beneath 80 nM.
FALSE

Dear reviewer, please state whether COc1ccc(C(=O)N2CCN(c3ncc(C(F)(F)F)cc3Cl)CC2)cc1C#Cc1ccccn1 has Ki strictly beneath 80 nM.
FALSE

Dear reviewer, please state whether CCOc1ccc(C(=O)N2CCN(c3ncccc3Cl)CC2)cc1C#Cc1ccccn1 has Ki strictly beneath 80 nM.
FALSE

Dear reviewer, please state whether COc1ccc(N2CCN(C(=O)c3ccc(OC)c(C#Cc4ccccn4)c3)CC2)nn1 has Ki strictly beneath 80 nM.
FALSE

Dear reviewer, please state whether COc1ccc(C(=O)N2CCN(Cc3ccccc3F)CC2)cc1C#Cc1ccccn1 has Ki strictly beneath 80 nM.
TRUE

Dear reviewer, please state whether COc1ccc(C(=O)N2CCN(S(=O)(=O)c3cccc(Cl)c3)CC2)cc1C#Cc1ccccn1 has Ki strictly beneath 80 nM.
FALSE

Dear reviewer, please state whether CCOc1ccc(C(=O)N2CCN(c3noc4ccccc34)CC2)cc1C#Cc1ccccn1 has Ki strictly beneath 80 nM.
TRUE

Dear reviewer, please state whether COc1ccc(C(=O)N2CCCN(c3ncccc3C#N)CC2)cc1C#Cc1ccccn1 has Ki strictly beneath 80 nM.
FALSE

Dear reviewer, please state whether COc1ccc(C(=O)N2CCN(Cc3cccc(Cl)c3)CC2)cc1C#Cc1ccccn1 has Ki strictly beneath 80 nM.
FALSE

Dear reviewer, please state whether COc1ccc(C(=O)N2CCN(c3ncccc3Cl)CC2)cc1C#Cc1ccccc1F has Ki strictly beneath 80 nM.
FALSE
